assay-notes: DAX1 (NR0B1) inhibitors on StAR promoter, primary screen, cell-based, luminescence, SF-1 (NR5A1), full-length DAX-1 (AID 652010);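 note: 0% = DAX-1 cells with DMSO and 100% = cells lacking DAX-1 with DMSO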
experimental-context: HEK293T StAR-luciferase reporter, SF-1/DAX-1 repression relief; at 6.8 µM; active compounds read high
Screen size: about 370,000 compounds; about 4,100 (1.1%) were called active. The entries come from a sample that favours actives as a whole.
Known inhibition of a selection of compounds

Solved cases (3 shown):
compound	inhibition
N#Cc1c(NC(=O)C2CCCO2)sc2c1CCCCC2 (stereo unspecified)	3.86% (active)
COc1ccccc1-c1nnc(NC(=O)c2ccc3ncsc3c2)o1	0.87% (inactive)
CCOc1ccc(N2CC(C(=O)NCc3ccccn3)CC2=O)cc1 (stereo unspecified)	-0.17% (inactive)

Query block: Would you mind telling me what inhibition value was observed for `Cc1nn(Cc2ccc(Cl)c(Cl)c2)c(C)c1NC(=O)c1cc(C2CC2)on1` ?
Result block: -1.2% (inactive)

Query block: So what's the measured inhibition for this one? `CC(C)=CCc1c(O)c(CC=C(C)C)c2occ(-c3ccc(O)cc3)c(=O)c2c1O`
Result block: 0.21% (inactive)

Query block: # inhibition lookup, item CCCNC(=O)C1CC(=O)N(c2ccc(OCC(=O)Nc3cccc(C)c3C)cc2)C1 (stereo unspecified)
Result block: 0.23% (inactive)

Query block: If you can, please state the reported inhibition value of O=C(CCCN1C(=O)C2C3C=CC(C3)C2C1=O)N1CCN(c2ccccc2)CC1 (stereo unspecified) .
Result block: -0.34% (inactive)

Query block: Look up inhibition: CCCNC(=O)C1CC(=O)N(c2ccc(OCc3ccccc3)cc2)C1 (stereo unspecified)
Result block: 5.35% (active)

Query block: Entry `COc1ccc(C(=O)CSc2nnc(-c3cnccn3)n2-c2ccc(C)cc2)cc1` : reported inhibition = ?
Result block: 0.38% (inactive)

Query block: // query inhibition value for entry `CCNC(=O)c1sccc1-n1cccc1`
Result block: -0.31% (inactive)

Query block: Endpoint output: inhibition of `Cc1ccsc1C(=O)NCCc1ccco1` . Value?
Result block: 4.3% (active)

###

assay-notes: DAX1 (NR0B1) inhibitors on StAR promoter, primary screen, cell-based, luminescence, SF-1 (NR5A1), full-length DAX-1 (AID 652010);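 note: 0% = DAX-1 cells with DMSO and 100% = cells lacking DAX-1 with DMSO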
experimental-context: HEK293T StAR-luciferase reporter, SF-1/DAX-1 repression relief; at 6.8 µM
Hit rate of the full screen: of about 370,000 compounds, about 4,100 (1.1%) were called active.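 The calls were made as follows: active = inhibition above the mean over all tested compounds plus 3 SD (cut at about 3.6% in these data); inactive = the rest.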 Many of the other results were omitted from the sample, so actives are more common in it than they were.
Respond only with the outcome that fits, drawn from 1 = active, -1 = inactive

Reference set, count: 3
molecule	label-value
O=C(Nc1cccc(Cl)c1)OC1CC2CC1[C@H]1CCCCN1[C@H]2Cc1ccccc1 (stereo not given in full)	-1
O=C1Nc2ccccc2OC1CC(=O)N1CCCCCCC1 (stereo not given)	-1
COCCNC(=S)N(C)[C@H]1C[C@H]2c3[nH]c4ccccc4c3CCN2C[C@H]1[C@H](C)O	-1

Query block: Hi, sorry to bother you, what did the test record for `CC(C)c1ccc(Nc2ncccc2C#N)cc1` ?
Result block: 1

Query block: Hi, do you know how `CN(C)CCN(C(=O)C1=COCCO1)c1nc2ccc(Cl)cc2s1` came out in this test?
Result block: 1

Query block: Assay outcome for `Cc1ccc(C(=O)N/N=C/c2sc(=O)n(Cc3cccc(C(=O)O)c3)c2Cl)cc1` : what was it?
Result block: -1

Query block: Per the records of this test, what outcome belongs to `C=CCN1C(=O)[C@@H](CC(=O)NCCCCc2ccccc2)[C@]2(C(=O)OCC)CCCCC/C=C/12` ?
Result block: -1

Query block: I would be grateful if you could indicate the recorded call for `COc1ccc(-n2c(SCC(=O)NC3CCCC3)nnc2-c2ccncc2)cc1` .
Result block: -1

Query block: Record request — test call for CC(=NNC(N)=O)C1CC2CCC1CC2 (stereo not given)
Result block: -1

Query block: What call does the record list for `COCCCNC(=O)C[C@H]1C[C@@]2(C(=O)OC)C(=C[C@H](C(C)(C)C)O[C@@H]2C)N(Cc2ccc(Cl)cc2Cl)C1=O` ?
Result block: -1

###

assay-notes: DAX1 (NR0B1) inhibitors on StAR promoter, primary screen, cell-based, luminescence, SF-1 (NR5A1), full-length DAX-1 (AID 652010);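 note: 0% = DAX-1 cells with DMSO and 100% = cells lacking DAX-1 with DMSO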
experimental-context: HEK293T StAR-luciferase reporter, SF-1/DAX-1 repression relief; at 6.8 µM
The campaign covered roughly 370,000 compounds. About 4,100 (1.1%) were called active.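 Rule for the calls: active = inhibition above the mean over all tested compounds plus 3 SD (cut at about 3.6% in these data); inactive = the rest.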 The sample holds actives, similar compounds and a random draw of the others, so the mix is not that of the screen.
Pick from 1.0 for active, 0.0 for inactive when you respond.

compound	label-value
COC(=O)C1CN(CCc2ccccc2)CCS(=O)(=O)N1Cc1ccc(F)cc1 (centres undefined)	0.0

Query block: What did this assay record as the result for `COc1cccc(N2CCN(CC(=O)N(C)Cc3ccc(F)cc3)CC2)c1` ?
Result block: 0.0

Query block: GET /call?item= `C/C(=N\OC(=O)c1ccccc1)c1c(C)nc2cc(C)ccn12` returns the recorded outcome of this test.
Result block: 0.0

Query block: Per the assay record, what outcome was assigned to `CCN(c1ccccc1)S(=O)(=O)c1ccc(OCC(=O)N2CCCC2)cc1` ?
Result block: 1.0

Query block: Each compound tested received a call. Report the one for `COC(=O)C(C(=O)OC)c1ccccc1NS(=O)(=O)c1cccc2ccccc12` .
Result block: 0.0

Query block: Hi, do you know how `CC(C)(C)NC(=O)Cn1cnc2cc([N+](=O)[O-])ccc2c1=O` came out in this test?
Result block: 0.0

###

assay-notes: DAX1 (NR0B1) inhibitors on StAR promoter, primary screen, cell-based, luminescence, SF-1 (NR5A1), full-length DAX-1 (AID 652010);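 note: 0% = DAX-1 cells with DMSO and 100% = cells lacking DAX-1 with DMSO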
experimental-context: HEK293T StAR-luciferase reporter, SF-1/DAX-1 repression relief; at 6.8 µM
Hit rate of the full screen: of about 370,000 compounds, about 4,100 (1.1%) were called active.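 Rule for the calls: active = inhibition above the mean over all tested compounds plus 3 SD (cut at about 3.6% in these data); inactive = the rest.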 The entries come from a sample that favours actives as a whole.
Classes to choose from: active, inactive

Query block: So what was the verdict on `CCN(CC(=O)Nc1c(F)cccc1F)C(=O)c1ccc(-c2ccccc2)cc1` in this test?
Result block: inactive

Query block: What did this assay record as the result for `CCCCNC(=O)C[C@H]1C[C@@]2(C(=O)OC)C(=C[C@H](COCc3ccccc3)O[C@@H]2C)N(Cc2ccc(Cl)cc2Cl)C1=O` ?
Result block: inactive

Query block: Name the outcome recorded for `CC(=O)c1ccc(S(=O)(=O)NCC2CCN(C(=O)C(=O)c3cccs3)CC2)cc1` in the assay.
Result block: inactive

Query block: Any idea what this test logged for Cc1ccc2c(c1)C1CN(C)CCC1N2S(=O)(=O)c1ccc(Oc2ccc([N+](=O)[O-])cc2)cc1 (configuration not stated) ?
Result block: inactive

Query block: Query: recorded result category for Nc1[nH]c(/C=C2/CCCCC2n2[nH]c(=O)n(-c3ccccc3)c2=O)c(Cc2ccccc2)[n+]1Cc1ccccc1 (configuration not stated) in this test
Result block: inactive

Query block: What classification did COc1cc(NC(=O)C2CCCN(S(=O)(=O)c3ccc(C(C)(C)C)cc3)C2)cc(OC)c1 (configuration not stated) end up with in this test?
Result block: inactive

Query block: Outcome logged for O=C(O)C1CC=CCC1C(=O)NCCc1ccccc1 (configuration not stated) in this assay:
Result block: inactive

Query block: Could you check what this test reported for `COC(=O)c1cc(NC(=O)c2cc(C(C)(C)C)nn2Cc2cccc(C)c2)ccc1N1CCOCC1` ?
Result block: inactive

Query block: Returns: the outcome recorded for `Cc1ccnc(NC(=O)CCNS(=O)(=O)c2ccc(C)c(C)c2)c1` in this assay.
Result block: active

###

assay-notes: DAX1 (NR0B1) inhibitors on StAR promoter, primary screen, cell-based, luminescence, SF-1 (NR5A1), full-length DAX-1 (AID 652010);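 note: 0% = DAX-1 cells with DMSO and 100% = cells lacking DAX-1 with DMSO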
experimental-context: HEK293T StAR-luciferase reporter, SF-1/DAX-1 repression relief; at 6.8 µM; active compounds read high
Screen size: about 370,000 compounds; about 4,100 (1.1%) were called active. The sample holds actives, similar compounds and a random draw of the others, so the mix is not that of the screen.
# key: entry, value: inhibition

The following compounds have reported results that may help.
CC(=O)Nc1cccc(C(=O)OCN2C(=O)c3ccccc3C2=O)c1 1.3% (inactive)
CC(C)(C)c1csc(NC2=NS(=O)(=O)c3ccccc32)n1 5.84% (active)
COc1ccc(-n2c(SCC(=O)Nc3ccc4cn[nH]c4c3)nnc2-c2cccnc2)cc1 0.02% (inactive)
Cc1ccc(S(=O)(=O)N(NC2=NS(=O)(=O)c3ccccc32)C(=O)c2ccccc2)cc1 0.29% (inactive)
O=C(Oc1cccc(NC2=NS(=O)(=O)c3ccccc32)c1)c1ccncc1 0.31% (inactive)

--- query ---
Query block: Tell me the measured inhibition of `CC(=O)Nc1cccc(C(=O)OCC(=O)c2ccc3c(c2)OCO3)c1` , please.
Result block: 13.7% (active)
